Data origin: a melting point compilation (Tetko et al.; mined from patent text by program, amines drawn as free bases though some values may be those of a salt)

experimental-readout: melting point

These recorded examples may help you get a feel for the data.
Which melting point value belongs to COc1cc(C(=O)c2csc(-c3ccc(N)cc3)n2)cc(OC)c1OC ?
166 to 169 °C

Ok, now COc1cc(C(N)=O)cc([N+](=O)[O-])c1OC
182 to 185 °C

Same read-out for CC(C)c1cccc(-c2c(-c3ccc4nn(C)cc4c3)nsc2NC(=O)[C@@H]2C[C@H]2C)n1 ?
142 to 144 °C

Similarly, CS(=O)(=O)c1ccc(NC(=O)c2ccccc2SSc2ccccc2C(=O)Nc2ccc(S(C)(=O)=O)cc2)cc1 ?
236 to 238 °C

Quick one: CCCCCCC1(C(=O)NCCC)c2ccccc2Oc2ccccc21
76 to 77.5 °C

Continuing:
If you can, please state the reported melting point value of CCOC(=O)c1cc2c(Cl)c(OC)c(OC)cc2s1 .
124 to 126 °C

Queued: COc1ccc(Oc2c(C)cc([N+](=O)[O-])cc2C)cc1C(=O)c1ccc(F)cc1
167 to 168 °C

Next compound: Cc1ccc(S(=O)(=O)Nc2ccc3nc(N4CCN(C)CC4)c(N4CCN(C)CC4)nc3c2)cc1
234 to 237 °C

What do you get for CN1C(=O)C2C3C=CC(CC3)C2(c2ccc(Cl)c(Cl)c2)C1=O (stereo not given) ?
125 to 128 °C

How about this compound: CCOC(=O)C1=CNc2ccnn2C1
198 to 200 °C

Try this compound next: CCCC1C(C(=O)OCC)C(O)(C(F)(F)F)OC(O)(C(F)(F)F)C1C(=O)OCC (stereo not given)
128 to 132 °C

Now try O=C(OC1CCN(Cc2ccccc2)CC1)c1ccccc1I .
73 to 74 °C

Would you kindly repeat that for CC(NO)c1ccc2c(c1)Sc1cc(Cl)ccc1O2 (stereo not given) ?
103 to 105 °C

# iterate: Cn1c(CCC#Cc2cccc(CF)n2)nc2ccccc21
95.3 to 96.3 °C

Okay, and O=C1Nc2cccnc2N(CC#CCN2CCCCC2)c2ccccc21 ?
198 °C

* * *

Listing of entries alongside the reported melting point.

Examples from the recorded data:
// lookup melting point for CCCCCCCCCCCCCCCCCCCCCCCCNc1ccc(C(=O)C(F)(F)F)cc1
89 to 90 °C

Do the same for N#Cc1cccc(N2Cc3ccccc3CN(C3CCNCC3)C2=O)c1 please
116 °C

Try Cc1cc(-c2cc(C(F)(F)F)n3ncc(C(=O)O)c3n2)ccc1C(F)(F)F next.
250 °C

Same question for CC(C)c1ncc2n1-c1ccc(Cl)cc1C(c1ccccc1F)=NC2 please.
168 to 169 °C

Now consider COC(=O)C1=C(C)NC(CC(=O)N2CCN(C3CCCC3)CC2)=C(C(=O)OC)C1c1c(Cl)cccc1Cl (stereo not drawn) and answer again.
185 to 195 °C

// moving on: another record for melting point
// query melting point value for entry CN1CC[C@@H](c2c(O)cc(O)c3c(=O)cc(-c4ccc(Br)cc4Cl)oc23)[C@@H]1CO
155 to 156 °C

* * *

# melting point per entry

Answered cases to consult:
Recorded melting point of ClC(Cl)(Cl)c1nnc(-c2cccc3ccccc23)o1 , please.
90 to 91.5 °C

Another molecule to look at: Cc1ccccc1COC1COC(c2ccco2)OC1 (stereo unspecified)
64 to 65 °C

Also need CC(C)(C)c1cc(C(C)(C)C)c(Br)c(C(C)(C)C)c1 , thanks.
170 to 172 °C

Further cases:
Recorded melting point for COc1ccc(C(=O)C2=C(O)C(=O)N(c3ccc(C)nn3)C2c2ccc(OC(F)(F)F)cc2)cn1 (stereo unspecified) , please?
250 to 251 °C

Next record, please: CC(C)(C)OC(=O)ON=C(C#N)c1cccc2ccccc12
90 to 92 °C

What about this molecule? O=C1CCCC(=O)N1c1cc(I)cc(I)c1
177 to 178 °C

Ok, now Cc1oc(-c2ccco2)nc1COc1ccc(COc2ncccc2C#N)cc1
135 to 136 °C

Lookup CN(C)Cc1cc(C(C)(C)c2cc(CN(C)C)c(O)c(CN(C)C)c2)cc(CN(C)C)c1O
88 to 90 °C

* * *

Measured melting point by item

Any idea what its melting point is? The compound is CC(C)Oc1ccc([N+](=O)[O-])cc1NC(=O)Nc1cccnc1
231 to 232 °C

Same question, O=C(OC1Oc2ccccc2-n2cnc(-c3noc(C4CC4)n3)c21)c1ccccc1 (centres undefined) this time
165 to 167 °C

Query OC(CNc1ccc(Cl)c(Cl)c1)Cn1ccnc1 (centres undefined) next
98 to 100 °C

***
// lookup melting point for CCCN(CCC)C1CCc2cc(NC(=O)C=NO)ccc2C1 (centres undefined)
110 to 112 °C

Queued: CCCN(CCC)C(=O)Cc1ccccc1Nc1c(Cl)cccc1Cl
84 to 86 °C

Could you do the same for CCCc1ccc(S(=O)(=O)c2ccc(F)cc2)cc1S(=O)(=O)NCCc1cccnc1 , please?
111 to 113 °C

Another compound to look at: NC1CN(c2c(F)cc3c(=O)c(C(=O)O)cn(C4CC4)c3c2F)CC12OCCO2 (centres undefined)
224 to 226 °C

What do you get for CCCCCNc1cccc(C(=O)O)c1C(=O)O ?
236 to 238 °C

* * *

experimental-readout: melting point

What does the record list as melting point for CCCOc1c(OC)cc(C(=O)CCC(=O)c2cc(OC)c(OC)c(OC)c2)cc1SC ?
113 to 114 °C

Could you do the same for C=CCOc1cccc(C(C)=O)c1O , please?
51 to 52 °C

Same thing, different compound: N#CC(C(=O)c1ccc(-c2ccc(Cl)cc2)cc1)=C1CCCCN1
134 °C

Attention now shifts to the item below.
Reported melting point, compound Clc1ccc(-c2[nH]nc(N3CCN(C4CC4)CC3)c2-c2ccncc2)cc1 : ____
264 to 265 °C

* * *

Below, each entry is listed with its recorded melting point.

Which melting point is reported for this compound? COc1c(Cl)ccc(C2=NC(C)(C)CO2)c1SC
50 to 52 °C

Check Cc1cc(C)cc(Sc2c(CC#N)nc(C)n2C)c1 too.
81 to 82 °C

Try the compound O=C1C(=O)N(CCN2CCN(C(c3ccccc3)c3ccccc3)CC2)c2ccccc21
145 to 148 °C

How about COc1cc(COc2cccc(O)c2C)cc(OC)c1 ?
63 to 69 °C

Next entry: Cc1cccc(C)c1NC(=O)CCN1CCN(CCCC(c2ccc(F)cc2)c2ccc(F)cc2)C(C(N)=O)C1 (stereo unspecified)
121 °C

Next compound, please.
Which value of melting point has been reported for CC(C)(C)OC(=O)[C@@H]1CC[C@H](NC(=O)CNC(=O)c2ccc(OCc3ccccc3)c(C(C)(C)C)c2)[C@H](C(=O)O)C1 in the records?
126 to 132 °C

* * *

Reported melting point values for a set of molecules

Would you please look over these solved cases?
Which value of melting point has been reported for CN(C)c1ncc(-c2cccc(-n3cnc4cc(-n5cccc5)ccc43)c2)cn1 in the records?
237 to 238 °C

// same read-out, input: Cc1nn(C)c2nc(N)[nH]c(=O)c2c1=O
> 300 °C

And CO/C(=C1/C(C)=C(CC(=O)O)c2cc(F)ccc21)c1ccccc1 ?
184 to 186 °C

Next:
Fill blank: measured melting point of the molecule CC(CO)(Cc1c[nH]c2ccccc12)NC(=O)OC1C2CC3CC(C2)CC1C3 (stereo not given) is ____.
72 to 74 °C

Follow-up entry: Cc1nc(-c2ccc(C(=O)N[C@H]3CC[C@H](CCN4CCC(c5cccc6c5CCO6)CC4)CC3)cc2)no1
256 °C

Okay, and N#CC(=C1CSc2ccccc2N1)c1ccc(Cl)cc1 ?
137 to 139 °C

Again, but for C(=C\c1nc(COc2ccc(Cn3cnnc3)cc2)co1)/c1ccccc1
209 to 210 °C

And what about the molecule CSC(SC)c1cnn(-c2c(Cl)cc(C(F)(F)F)cc2Cl)n1 ?
67 to 68 °C

And what about the molecule CN1CCN(CCCNc2ncc3cc(-c4c(Cl)cccc4Cl)c(N)nc3n2)CC1 ?
208 to 211 °C

What do you get for Cc1ccc(S(=O)(=O)NCCCCOc2ccc(-c3nnn[nH]3)cc2)cc1 ?
180 to 182 °C

Then Cc1c(OCC(F)(F)F)ccnc1CSc1nc2ccccc2n1NCC(C)C ?
82 to 83 °C

And what about the molecule CC(C)C[C@H](NC(=O)c1ccccc1)C(=O)NC#N ?
136 to 137 °C

And then Clc1cc(Cl)cc(NCNc2cc(Cl)cc(Cl)c2)c1 , what is it?
153 to 156 °C

Same again, this time with OCc1cc2cccc3cc(-c4ccc(O)cc4)c1n23
185 to 190 °C

CCCC(=O)N(Cc1ccc(-c2ccccc2C#N)cc1)c1nn(C)cc1C(=O)OCC , same question.
118 to 119 °C
